test: Biodistribution in male Balb/C mice; type: in vivo; conditions: 60 min post injection, tail vein; mean ± SD, n = 4
property measured: Biodistribution: Spleen (% ID/g)

# compound, property measured, quantitative result
records = [
    ("COc1ccc(NC(=O)c2ccc(/C=C/c3ccncc3)cc2)cc1 [[^11C]TZ-20-83]", "Biodistribution: Spleen", 3.21),
    ("O=C(Nc1ccc(OCC[18F])cc1)c1ccc(/C=C/c2ccncc2)cc1 [[^18F]TZ-23-88]", "Biodistribution: Spleen", 0.90),
    ("O=C(Nc1ccc(OCCC[18F])cc1)c1ccc(/C=C/c2ccncc2)cc1 [[^18F]TZ-23-92]", "Biodistribution: Spleen", 0.61),
    ("COC(=O)c1ccc(/C=C/c2ccncc2)cc1 [[^11C]TZ-20-35]", "Biodistribution: Spleen", 3.30),
]
